Can you tell me kcat/Km for the items I'm about to list?
Substrate: CC(=O)C=O
Assay: purified protein, by the assay type
Conditions: other: methylglyoxal 1.3-30 mM, 0.2 mM NADPH, pH 7.5, 37° C.
One number for each entry, in M⁻¹ s⁻¹.

Please review the entries below; each comes with its answer.
[
  {
    "Protein": "E. coli YqhD variant YqhD*(G149S) (Escherichia coli K-12; G149S) (protein) MNNFNLHTPTRILFGKGAIAGLREQIPHDARVLITYGGGSVKKTGVLDQVLDALKGMDVLEFGGIEPNPAYETLMNAVKLVREQKVTFLLAVGGGSVLDGTKFIAAAANYPENIDPWHILQTGGKEIKSAIPMGCVLTLPATGSESNASAVISRKTTGDKQAFHSAHVQPVFAVLDPVYTYTLPPRQVANGVVDAFVHTVEQYVTKPVDAKIQDRFAEGILLTLIEDGPKALKEPENYDVRANVMWAATQALNGLIGAGVPQDWATHMLGHELTAMHGLDHAQTLAIVLPALWNEKRDTKRAKLLQYAERVWNITEGSDDERIDAAIAATRNFFEQLGVPTHLSDYGLDGSSIPALLKKLEEHGMTQLGENHDITLDVSRRIYEAAR",
    "Reading unit": "M⁻¹ s⁻¹",
    "kcat/Km": 792
  },
  {
    "Protein": "Escherichia coli MG1655 YqhD, native (wild type), SEQ ID NO: 56 (Escherichia coli K-12) (protein) MNNFNLHTPTRILFGKGAIAGLREQIPHDARVLITYGGGSVKKTGVLDQVLDALKGMDVLEFGGIEPNPAYETLMNAVKLVREQKVTFLLAVGGGSVLDGTKFIAAAANYPENIDPWHILQTGGKEIKSAIPMGCVLTLPATGSESNAGAVISRKTTGDKQAFHSAHVQPVFAVLDPVYTYTLPPRQVANGVVDAFVHTVEQYVTKPVDAKIQDRFAEGILLTLIEDGPKALKEPENYDVRANVMWAATQALNGLIGAGVPQDWATHMLGHELTAMHGLDHAQTLAIVLPALWNEKRDTKRAKLLQYAERVWNITEGSDDERIDAAIAATRNFFEQLGVPTHLSDYGLDGSSIPALLKKLEEHGMTQLGENHDITLDVSRRIYEAAR",
    "Reading unit": "M⁻¹ s⁻¹",
    "kcat/Km": 570
  }
]

Please state, for each entry, its recorded kcat/Km.
1. E. coli YqhD variant YqhD*(G149S A286T) (Escherichia coli K-12; A286T/G149S) (protein) MNNFNLHTPTRILFGKGAIAGLREQIPHDARVLITYGGGSVKKTGVLDQVLDALKGMDVLEFGGIEPNPAYETLMNAVKLVREQKVTFLLAVGGGSVLDGTKFIAAAANYPENIDPWHILQTGGKEIKSAIPMGCVLTLPATGSESNASAVISRKTTGDKQAFHSAHVQPVFAVLDPVYTYTLPPRQVANGVVDAFVHTVEQYVTKPVDAKIQDRFAEGILLTLIEDGPKALKEPENYDVRANVMWAATQALNGLIGAGVPQDWATHMLGHELTAMHGLDHAQTLTIVLPALWNEKRDTKRAKLLQYAERVWNITEGSDDERIDAAIAATRNFFEQLGVPTHLSDYGLDGSSIPALLKKLEEHGMTQLGENHDITLDVSRRIYEAAR
2. E. coli YqhD variant YqhD*(G149E) (Escherichia coli K-12; G149E) (protein) MNNFNLHTPTRILFGKGAIAGLREQIPHDARVLITYGGGSVKKTGVLDQVLDALKGMDVLEFGGIEPNPAYETLMNAVKLVREQKVTFLLAVGGGSVLDGTKFIAAAANYPENIDPWHILQTGGKEIKSAIPMGCVLTLPATGSESNAEAVISRKTTGDKQAFHSAHVQPVFAVLDPVYTYTLPPRQVANGVVDAFVHTVEQYVTKPVDAKIQDRFAEGILLTLIEDGPKALKEPENYDVRANVMWAATQALNGLIGAGVPQDWATHMLGHELTAMHGLDHAQTLAIVLPALWNEKRDTKRAKLLQYAERVWNITEGSDDERIDAAIAATRNFFEQLGVPTHLSDYGLDGSSIPALLKKLEEHGMTQLGENHDITLDVSRRIYEAAR

Reply:
1: 577; 2: 689
